Biological target: the molecule itself
Test: AUC; sedimentation velocity, absorbance optics, 20 mM Tris-HCl pH 8.0, 100 mM NaCl, 2 mM DTT, 20 °C, c(s) model in Sedfit
assay.readout: stoichiometry N
// return a plain number; no unit text

Reported stoichiometry N of sNlpI-L38C (natural protein, E. coli, UniProt P0AFB1 20-294, looked up, NlpI, E. coli, residues S20-Q294 without the signal peptide, L38C in helix h1; source: E. coli BL21(DE3), purified (Ni-NTA, MonoQ, Superdex 200)) SNTSWRKSEVLAVPLQPTCQQEVILARMEQILASRALTDDERAQLLYERGVLYDSLGLRALARNDFSQALAIRPDMPEVFNYLGIYLTQAGNFDAAYEAFDSVLELDPTYNYAHLNRGIALYYGGRDKLAQDDLLAFYQDDPNDPFRSLWLYLAEQKLDEKQAKEVLKQHFEKSDKEQWGWNIVEFYLGNISEQTLMERLKADATDNTSLAEHLSETNFYLGKYYLSLGDLDSATALFKLAVANNVHNFVEHRYALLELSLLGQDQDDLAESDQQ : 2
